target: Cystic fibrosis transmembrane conductance regulator (Homo sapiens) (UniProt P13569); assay: F508del-CFTR plasma membrane relocalization enhancers – imaging, HeLa, high-content microscopy, immunofluorescence, primary screen (AID 1224864); details: PM immunofluorescence imaging, 24 h, at 10 µM, stronger effect = higher value, relative to vehicle wells set at 100; measured here: total cellular F508del-CFTR signal;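 note: HeLa cells stably expressing F508del-CFTR stained with 3G11 antibody against NBD1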
Sequence (P13569 whole entry, looked up, stated change not applied): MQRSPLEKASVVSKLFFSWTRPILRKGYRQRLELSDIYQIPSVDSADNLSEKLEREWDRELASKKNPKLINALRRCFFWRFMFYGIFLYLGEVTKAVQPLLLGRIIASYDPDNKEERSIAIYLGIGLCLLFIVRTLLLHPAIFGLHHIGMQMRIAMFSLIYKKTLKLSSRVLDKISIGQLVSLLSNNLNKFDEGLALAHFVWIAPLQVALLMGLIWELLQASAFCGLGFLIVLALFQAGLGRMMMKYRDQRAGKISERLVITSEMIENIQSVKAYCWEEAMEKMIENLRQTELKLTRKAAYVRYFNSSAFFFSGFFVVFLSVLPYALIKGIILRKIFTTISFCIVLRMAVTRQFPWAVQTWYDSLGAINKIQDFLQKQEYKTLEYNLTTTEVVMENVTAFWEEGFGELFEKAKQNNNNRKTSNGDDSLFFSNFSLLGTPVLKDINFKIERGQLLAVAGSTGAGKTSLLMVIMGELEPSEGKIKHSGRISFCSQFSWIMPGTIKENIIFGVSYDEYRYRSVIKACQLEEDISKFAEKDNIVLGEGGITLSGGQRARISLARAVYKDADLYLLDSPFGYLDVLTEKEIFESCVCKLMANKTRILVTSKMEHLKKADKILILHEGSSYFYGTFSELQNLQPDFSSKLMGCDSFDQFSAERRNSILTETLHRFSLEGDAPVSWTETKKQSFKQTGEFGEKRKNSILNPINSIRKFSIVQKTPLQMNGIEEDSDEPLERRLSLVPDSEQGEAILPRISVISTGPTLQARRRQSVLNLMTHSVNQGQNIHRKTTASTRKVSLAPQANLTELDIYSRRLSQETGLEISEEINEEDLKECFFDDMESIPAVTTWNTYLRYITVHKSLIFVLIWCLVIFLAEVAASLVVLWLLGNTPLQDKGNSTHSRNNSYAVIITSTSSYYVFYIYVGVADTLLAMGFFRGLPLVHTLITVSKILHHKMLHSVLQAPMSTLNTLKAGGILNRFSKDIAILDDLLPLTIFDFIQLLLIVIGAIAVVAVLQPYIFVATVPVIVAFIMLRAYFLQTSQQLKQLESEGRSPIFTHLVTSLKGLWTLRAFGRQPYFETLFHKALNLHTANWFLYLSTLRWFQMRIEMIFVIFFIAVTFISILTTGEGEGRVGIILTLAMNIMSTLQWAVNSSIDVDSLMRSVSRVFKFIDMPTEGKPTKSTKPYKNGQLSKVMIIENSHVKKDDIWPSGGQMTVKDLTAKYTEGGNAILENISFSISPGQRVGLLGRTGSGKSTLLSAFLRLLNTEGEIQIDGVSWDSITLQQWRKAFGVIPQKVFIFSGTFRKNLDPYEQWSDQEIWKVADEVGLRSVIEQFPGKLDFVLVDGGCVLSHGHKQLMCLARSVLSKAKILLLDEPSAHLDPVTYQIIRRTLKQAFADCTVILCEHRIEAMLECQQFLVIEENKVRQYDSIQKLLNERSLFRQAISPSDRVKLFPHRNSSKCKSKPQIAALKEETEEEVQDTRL
About 20 (1%) of roughly 2,000 compounds were called active. The sample as a whole holds a higher share of actives than the screen did.
Answer no (0) if total CFTR intensity is under 90%, and yes (1) if it is 90% or more.

Reference set (4 entries):
COMPOUND: Cc1ccc2c(c1)c1c(n2C)C(=O)CCC1
TESTED_SYSTEM: Cystic fibrosis transmembrane conductance regulator (Homo sapiens) (UniProt P13569)
ASSIGNED_CATEGORY: no (0)
--
COMPOUND: CN(CCCN1CCOCC1)Cc1cn(C)nc1-c1ccccc1F
TESTED_SYSTEM: Cystic fibrosis transmembrane conductance regulator (Homo sapiens) (UniProt P13569)
ASSIGNED_CATEGORY: no (0)
--
COMPOUND: CC(=O)[C@H]1CC[C@H]2[C@@H]3CCC4=CC(=O)CC[C@]4(C)[C@H]3CC[C@]12C
TESTED_SYSTEM: Cystic fibrosis transmembrane conductance regulator (Homo sapiens) (UniProt P13569)
ASSIGNED_CATEGORY: no (0)
--
COMPOUND: O=C(c1ccco1)N(CCC(c1ccccc1)c1ccco1)Cc1ccco1 (stereo unspecified)
TESTED_SYSTEM: Cystic fibrosis transmembrane conductance regulator (Homo sapiens) (UniProt P13569)
ASSIGNED_CATEGORY: yes (1)

Exam item: Please indicate if the recorded total CFTR intensity for O=C1C(=O)c2ccccc2C(O)=C1c1ccccc1F meets or exceeds 90%.
Marked response: no (0)

Exam item: Please indicate if the recorded total CFTR intensity for N#C/C(=C/c1ccccc1)C(=O)NCc1ccccc1 meets or exceeds 90%.
Marked response: yes (1)

Exam item: Given COC(=O)C1[C@H]2C(=O)N(Cc3cccs3)C[C@]23C=C[C@H]1O3 (stereo partly specified) , state whether its total CFTR intensity is at least 90%.
Marked response: yes (1)

Exam item: # bool: total CFTR intensity of N#C/C(=C\c1ccc(O)c(O)c1)C(=O)NCCCc1ccccc1 >= 90%
Marked response: no (0)

Exam item: Does the compound C/C(CCc1oc2ccc(Cl)cc2c1-c1ccc(C)o1)=N\O have recorded total CFTR intensity that is 90% or more?
Marked response: yes (1)

Exam item: Does the reported total CFTR intensity for S=C(NCc1ccccc1)NCc1cccc(CNC(=S)NCc2ccccc2)c1 fall at or above the 90% mark?
Marked response: no (0)

---

target: Cystic fibrosis transmembrane conductance regulator (Homo sapiens); experiment: F508del-CFTR plasma membrane relocalization enhancers – imaging, HeLa, high-content microscopy, immunofluorescence, primary screen (AID 1224864); conditions: PM immunofluorescence imaging, 24 h, at 10 µM, stronger effect = higher value, relative to vehicle wells set at 100;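 note: HeLa cells stably expressing F508del-CFTR stained with 3G11 antibody against NBD1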;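 for plasma membrane CFTR intensity: mean immunofluorescence in a thin cell-margin band taken as plasma membrane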
Among all 2,000 compounds or so, about 20 (1%) were called active. The entries come from a sample that favours actives as a whole.
Overview of reported plasma membrane CFTR intensity across a group of compounds:
The reply should be a number in %, with the unit left off.

Answered cases to consult:
COMPOUND: Fc1ccc(NC(=S)Nc2ccccc2Cl)cc1
UNIT_TAG: %
plasma membrane CFTR intensity: 92
//
COMPOUND: CCOC(=O)/C=C1\NC(C)(C)Cc2cc(OC)c(OC)cc21
UNIT_TAG: %
plasma membrane CFTR intensity: 86
//
COMPOUND: CCOc1ccccc1OCCOc1ccc(F)cc1
UNIT_TAG: %
plasma membrane CFTR intensity: 86
//
COMPOUND: CCCC1O[C@@H]2C[C@H]3[C@@H]4CCC5=CC(=O)C=C[C@]5(C)[C@H]4[C@@H](O)C[C@]3(C)[C@]2(C(=O)CO)O1 (stereo partly specified)
UNIT_TAG: %
plasma membrane CFTR intensity: 123
//
COMPOUND: CC(C)Cc1nc(NCCN2CCOCC2)c(C#N)c2c1COC(C)(C)C2
UNIT_TAG: %
plasma membrane CFTR intensity: 96

Entry under test: O=C(NC(Nc1ccccn1)C(Cl)(Cl)Cl)c1ccccc1 (stereo unspecified) . Its plasma membrane CFTR intensity was 84

GET /value?item= Cc1ccc2occ(C(=O)c3ccco3)c(=O)c2c1 &field=plasma membrane CFTR intensity returns 86

Just so you know, measured plasma membrane CFTR intensity for O=C(NCc1ccc2c(c1)OCO2)c1ccc2c(c1)OCCO2 came out at 80

Query CC1(C)Cc2ccccc2-c2n[nH]c(=S)n21 yields plasma membrane CFTR intensity of 93

Measured plasma membrane CFTR intensity, COc1ccc2c(CC(=O)NCC3CCC(C(=O)O)CC3)cc(=O)oc2c1 (stereo unspecified) : 92

Form: compound = Cn1nc(-c2ccc(Cl)cc2)nc2c(=O)n(C)c(=O)nc1-2 ; plasma membrane CFTR intensity = 84
